Where do the numbers come from? From patent US10405547B2.

Test system: galium (catchweed bedstraw, Galium aparine)
Assay: Test A postemergence, galium
Assay type: in vivo
Settings: 500 g ai/ha, visual injury, 0 to 100 scale (0 no effect, 100 complete control), approximately 10 days
recorded metric: Plant response rating, Galium
The response must contain the number and no unit.

[
  {
    "molecule": "O=C1NCC(c2cccc(Cn3cncn3)c2)C1C(=O)Nc1ccccc1F (stereo not drawn)",
    "Plant response rating, Galium": 20
  },
  {
    "molecule": "O=C1NCC(c2ccccc2Cn2ccc(C(F)(F)F)n2)C1C(=O)Nc1ccc(F)c(F)c1F (stereo not drawn)",
    "Plant response rating, Galium": 20
  }
]

Inquiry: API: value(readout= Plant response rating, Galium, system= galium (catchweed bedstraw, Galium aparine), query= O=C1NCC(c2ccccc2Cn2ccc(C(F)(F)F)n2)C1C(=O)Nc1cccc(F)c1F (stereo not drawn) )
Reply text: 20

----------
Test system: barnyardgrass (Echinochloa crus-galli)
Assay: Test A postemergence, barnyardgrass
Type: in vivo
Conditions: 500 g ai/ha, visual injury, 0 to 100 scale (0 no effect, 100 complete control), approximately 10 days
A collection of compounds and their measured Plant response rating, Barnyardgrass
The response must contain the number and no unit.

[
  {
    "compound": "O=C1NCC(c2cccc(OCc3ccco3)c2)C1C(=O)Nc1cccc(F)c1F (stereo not drawn)",
    "quantitative result": 60
  },
  {
    "compound": "O=C1NCC(c2cccc(Oc3ncc(F)cn3)c2)C1C(=O)Nc1ccccc1F (single isomer, unassigned)",
    "quantitative result": 100
  },
  {
    "compound": "O=C1NCC(c2cccc(OCc3ccco3)c2)C1C(=O)Nc1ccccc1C(F)(F)F (stereo not drawn)",
    "quantitative result": 0
  },
  {
    "compound": "O=C1NCC(c2cccc(OCC3OCCO3)c2)C1C(=O)Nc1ccccc1Cl (stereo not drawn)",
    "quantitative result": 70
  },
  {
    "compound": "O=C1NCC(c2ccccc2Cn2ccc(C(F)(F)F)n2)C1C(=O)Nc1ccc(F)c(F)c1F (stereo not drawn)",
    "quantitative result": 60
  },
  {
    "compound": "O=C1NCC(c2cccc(Oc3ccccn3)c2)C1C(=O)Nc1cccc(F)c1F (stereo not drawn)",
    "quantitative result": 40
  },
  {
    "compound": "O=C1NCC(c2cccc(Oc3ccccn3)c2)C1C(=O)Nc1ccccc1F (stereo not drawn)",
    "quantitative result": 60
  },
  {
    "compound": "CN1CC(c2cccc(Oc3ncc(F)cn3)c2)C(C(=O)Nc2cccc(F)c2F)C1=O (single isomer, unassigned)",
    "quantitative result": 100
  },
  {
    "compound": "O=C1NCC(c2cccc(OCC3OCCO3)c2)C1C(=O)Nc1cccc(F)c1F (stereo not drawn)",
    "quantitative result": 70
  },
  {
    "compound": "O=C1NCC(c2ccccc2Cn2ccc(C(F)(F)F)n2)C1C(=O)Nc1cccc(F)c1F (stereo not drawn)",
    "quantitative result": 60
  }
]

Inquiry: Give the measured Plant response rating, Barnyardgrass of O=C1NCC(c2cccc(Oc3ncc(Cl)cn3)c2)C1C(=O)Nc1ccccc1F (stereo not drawn) .
Reply text: 80

Inquiry: And then O=C1NCC(c2cccc(Oc3ccccn3)c2)C1C(=O)Nc1ccccc1Cl (stereo not drawn) , what is it?
Reply text: 20
